Entries annotated with measured self-cleavage
B1: Hairpin Ribozyme (parent)
chain: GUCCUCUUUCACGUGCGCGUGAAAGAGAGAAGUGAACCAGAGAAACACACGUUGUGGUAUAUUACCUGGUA

variants of: B1; test: self-cleavage, relative activity (ratio to wild type); higher = more cleavage; co-transcriptional

SEQUENCE_ENTRY | self-cleavage
GUCCUCUCUCACGUGCGCGUGAAAUAGAGAAGUGAACCAGAGAAACACACGUUGUGGUAUAUUACCUGGUA [U8C G25U] | 0.32
GUCCUCUUUCACGUGCGCGUGAAAGAGAGAAGUGAACCAGAGAAACACACGUUGUGAUUUAUUACCUGGUA [G57A A59U] | 0.0919
GUCCUCUUUCACGUGCGCGUGAAAGACAGAAGUGAACCAGGGAAACACACGUUGUGGUAUAUUACCUGGUA [G27C A41G] | 0.234
GUCCUCUUUCACGUGCGCGUGAAAGAGAGAAGAGAACCAGAGAAACACACGUUGGGGUAUAUUACCUGGUA [U33A U55G] | 0.0798
GUCCUGUUUCACGUGCGCGUGAAAGAGAGAAGUGAACCAGAGAGACACACGUUGUGGUAUAUUACCUGGUA [C6G A44G] | 0.134
GUCCUCUUUCACGUGCGCGUGAAAGAGAGCAGUGAAUCAGAGAAACACACGUUGUGGUAUAUUACCUGGUA [A30C C37U] | 0.0704
GUCCUCUUUCACGUGCGCGUGAAAGAGAGAAGCGAACCAGAGAAACACCCGUUGUGGUAUAUUACCUGGUA [U33C A49C] | 0.148
GUCCACUUUCACGUGCGCGUGAAAGAGAGAAGUGAACCAGAGAAACACACGUUGUGGUAUUUUACCUGGUA [U5A A61U] | 0.185
GUCCUCUUUCACGUGCGCGUGAAAGAGAGAAGUGAACUAGAGAAACACACGUUGUGGUAUAUUACCUGGCA [C38U U70C] | 0.268
GUCCUCUUUCACGUGCGCGUGAAAGAGAGAAGUGAACCAGAGAAACACACGUUGUGGUAUUUUAUCUGGUA [A61U C65U] | 0.188
GUCCUCUUUCACGUGCGCGUGAAAGAGAGAAGUGAACCUGAGAAACACACGUUGUGGUAUAUCACCUGGUA [A39U U63C] | 0.144
UUCCUCUUUCACGUGCGCGUGAAAGAGAGAAGUGAACCAGAGAAACACACGUUGUGGUAUAUUACCGGGUA [G1U U67G] | 0.097
CUCCUCUUUCACGUGUGCGUGAAAGAGAGAAGUGAACCAGAGAAACACACGUUGUGGUAUAUUACCUGGUA [G1C C16U] | 0.198
GUCCUCUUUCACGUGCGCGUGAAAGAGAGAAGUGAACCAGAGAAACACACGUUGUCGUAUAUAACCUGGUA [G56C U63A] | 0.0712
AUCCUCUUUCACGUGCGCGUGAAAGAGAGAAGUGAACCAGACAAACACACGUUGUGGUAUAUUACCUGGUA [G1A G42C] | 0.213
GUCCUCUUUCACGUGCGCGUGAAAGAGAGAAGUGAACCAGAGAAACACACGUUGUGGUACAUUACCUGGUG [U60C A71G] | 1.08
GUCCUCUUUUAGGUGCGCGUGAAAGAGAGAAGUGAACCAGAGAAACACACGUUGUGGUAUAUUACCUGGUA [C10U C12G] | 0.612
GUCCUCUUUCACGUGCGCGUGAAAGAGAGAAGUAAACCAGAGAAACACACGCUGUGGUAUAUUACCUGGUA [G34A U52C] | 0.857
GUCCUGUUUCACAUGCGCGUGAAAGAGAGAAGUGAACCAGAGAAACACACGUUGUGGUAUAUUACCUGGUA [C6G G13A] | 0.45
GUCCUCUUUCACGUGCGCGUGAAAGAGAGAAGUGAACCAGGGAAACACACGUUGUGGUAUAUCACCUGGUA [A41G U63C] | 0.0946
CUCCUCUUUCACGUGCGCGUGAAAGAGAGAAGUAAACCAGAGAAACACACGUUGUGGUAUAUUACCUGGUA [G1C G34A] | 0.162
GUCCUCUUUCACGUGCGCGUGAAAGAGAGAAGUGAACGAGAGAAACACCCGUUGUGGUAUAUUACCUGGUA [C38G A49C] | 0.106
GUCCUCUUUCACGUGCGCGUGAAAGAGAGAAGUGAACCAGAGUAACACACGUUGUGGUAUAUUACCUGUUA [A43U G69U] | 0.174
GUCCUCUUUCACGUGCGCGUGAAAGAGAGGAGUGAACCAGAGAACCACACGUUGUGGUAUAUUACCUGGUA [A30G A45C] | 0.267
GUCCUCUUUCACGUGCGCGUGAAAGAGAGAAGUGAACCAGAAAAACACACGUUGGGGUAUAUUACCUGGUA [G42A U55G] | 0.249
GUCCUCUUUCACGUGCGCGUUAAAGAGAGAAGUGAACCAGAGAUACACACGUUGUGGUAUAUUACCUGGUA [G21U A44U] | 0.165
GUCCUCUUUCACGUGCGCGUGAAAGAGAUAAGUGAACCAGAGAAACACACGUUGUGGUAUAUUACCUAGUA [G29U G68A] | 0.097
GUCCUCUUUCACGUGCGUGUGAAAGAGAGAAGUGAACCAGAGAAACACACGUUGUGGUGUAUUACCUGGUA [C18U A59G] | 0.148
GUCCUGUUUCACGUGCGCGUGAAAGAGAGAAGGGAACCAGAGAAACACACGUUGUGGUAUAUUACCUGGUA [C6G U33G] | 0.0659
GUCCUCUUUCACGUGCGCGUGAAAGAGAGAAGUGAACCAGAGAAACACACGUGUUGGUAUAUUACCUGGUA [U53G G54U] | 0.49
GUCCUCUUUCACGUGCGCGUGAUAGAGAGAAUUGAACCAGAGAAACACACGUUGUGGUAUAUUACCUGGUA [A23U G32U] | 0.19
GUCCUCUUUCACGUGCGCGUGAAAGAGAGAAGUGAACCAGAGAAACACACGUUCUGGUAUAUUACCUGAUA [G54C G69A] | 0.0998

Cited source for all entries: the RNAGym collection of RNA variant scans (doi:10.7554/elife.80360)
